# Substrate: C=CCO[C@@H]1O[C@H](CO)[C@@H](O[C@@H]2O[C@H](CO)[C@H](O[C@H]3O[C@H](CO)[C@H](O)[C@H](O[C@@H]4O[C@H](CO)[C@H](O)[C@H](O)[C@H]4NC(C)=O)[C@H]3O)[C@H](O)[C@H]2O)[C@H](O)[C@H]1O
# Run description: UDP release, Michaelis-Menten fit
# Format: biochemical, Homo sapiens
# Condition context: 10 mM UDP-sugar (UDP-Gal) fixed, 20 mM HEPES pH 7.4, 0.1 mM MnCl2
# Source text: UDP release, Michaelis-Menten fit on soluble β3GalT5-1 (HEK293)
kcat/Km by entry:
Write down the value, and be sure its unit follows.

# Protein, Reading
measured = [
    ("soluble β3GalT5-1 (HEK293) (Homo sapiens; Q69M/S66A) (protein, soluble luminal domain N29-V310, no TM; expressed in HEK293 cells, complex-type N-glycans) NPFKEQSFVYKKDGNFLKLPDTDCRQTPPFLVLLVTSAHKMLAERMAIRQTWGKERMVKGKQLKTFFLLGTTSSAAETKEVDQESQRHGDIIQKDFLDVYYNLTLKTMMGIEWVHRFCPQAAFVMKTDSDMFINVDYLTELLLKKNRTTRFFTGFLKLNEFPIRQPFSKWFVSKSEYPWDRYPPFCSGTGYVFSGDVASQVYNVSKSVPYIKLEDVFVGLCLERLNIRLEELHSQPTFFPGGLRFSVCLFRRIVACHFIKPRTLLDYWQALENSRGEDCPPV", "15 M⁻¹ s⁻¹"),
]

Could you now consider this next protein?
Query string: So what's the measured kcat/Km for this one? soluble β3GalT5-1 (HEK293) (Homo sapiens; Q69A/S66A) (protein, soluble luminal domain N29-V310, no TM; expressed in HEK293 cells, complex-type N-glycans) NPFKEQSFVYKKDGNFLKLPDTDCRQTPPFLVLLVTSAHKALAERMAIRQTWGKERMVKGKQLKTFFLLGTTSSAAETKEVDQESQRHGDIIQKDFLDVYYNLTLKTMMGIEWVHRFCPQAAFVMKTDSDMFINVDYLTELLLKKNRTTRFFTGFLKLNEFPIRQPFSKWFVSKSEYPWDRYPPFCSGTGYVFSGDVASQVYNVSKSVPYIKLEDVFVGLCLERLNIRLEELHSQPTFFPGGLRFSVCLFRRIVACHFIKPRTLLDYWQALENSRGEDCPPV
Result string: 7 M⁻¹ s⁻¹
